assay: NCI Yeast Anticancer Drug Screen. Data for the mec2-1 strain (AID 157); settings: S. cerevisiae mec2-1 strain, at 50.0 µM, stronger effect = higher value
About 79,000 compounds went through this panel and 15% of them were active in at least one assay; those are over-represented in the sample as a whole. Calls of active or inactive are those of the source. Cut-off read from the data, not from the text of the source: active = growth inhibition above about 70%; inactive = the rest.
Assay metric: growth inhibition

Some solved cases for reference:
Molecule: NNC(=O)CCc1cc2ccccc2c2ccccc12
growth inhibition: 98.8% (active)
--
Molecule: Nc1nc2ccc(NCc3ccc(C(=O)NC(CCC(=O)O)C(=O)O)cc3)cc2c(=O)[nH]1 (configuration not stated)
growth inhibition: 75.3% (active)
--
Molecule: CCCC/C=C/C(C)(C(=O)OCC)C(=O)OCC
growth inhibition: 26.9% (inactive)

Parameters: items (list). Returns: growth inhibition for each item.
1. O=[N+]([O-])/C=C/c1cc(Cl)c(/C=C/[N+](=O)[O-])cc1Cl
2. O=[N+]([O-])c1cccc2nc3ccccc3c(NCCCn3ccnc3[N+](=O)[O-])c12
3. O=C(O)C1CC(c2ccccc2)=NN1c1ccccc1 (configuration not stated)
4. Cc1ccc(NCCNCCO)c2c(=O)c3cc(O)ccc3sc12
5. O=C1C=C(Cl)C(=O)N1c1cccc(Cl)c1

### Response
73.5% (active)
87.5% (active)
59.8% (inactive)
71.8% (active)
99.6% (active)

* * *

Exercise: state measured growth inhibition for each of the compounds provided.
assay: NCI Yeast Anticancer Drug Screen. Data for the rad50EPP+ strain (AID 151);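 note: 0% = growth of vehicle-treated control cultures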; conditions: S. cerevisiae rad50 mutant strain, at 11.0 µM, stronger effect = higher value
About 79,000 compounds went through this panel and 15% of them were active in at least one assay; those are over-represented in the sample as a whole.
Numbers only, in %.

Some solved cases for reference:
Compound: Cn1c(=O)c2c(nc(N)n2C2OC(CO)C(O)C2O)n(C)c1=O (configuration not stated)
Measured value: 1
//
Compound: COc1ccc2c(c1)n([O-])c1ccccc1[n+]2=O
Measured value: 93
//
Compound: CC1=NOC(=O)/C1=C/c1ccc2c(c1)OCO2
Measured value: 41
//
Compound: CC(=O)Nc1ccc(/C=C/[N+](=O)[O-])cc1
Measured value: 51
//
Compound: CN(C)/C=C/c1nnc([N+](=O)[O-])s1
Measured value: 35
//
Compound: CC(C)(C)CC(C)(C)c1cc(O)c(O)c(CN2CCCCC2)c1
Measured value: -12

Next item in the queue.
### Prompt Please report growth inhibition for the following compound: `Cc1ccccc1N=C(NO)c1ccccc1`
### Response 15

* * *

assay: NCI Yeast Anticancer Drug Screen. Data for the cln2 rad14 strain (AID 165);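 note: 0% = growth equal to vehicle treated cultures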; settings: S. cerevisiae cln2 rad14 strain, at 5.0 µM (retest, dose inferred, filed as 0.5), stronger effect = higher value
Compounds without any hit were thinned out: in the full panel of roughly 79,000, 15% have a hit.
Exercise: state measured growth inhibition for each of the compounds provided.
Give bare numbers, in %.

Parameters: items (list). Returns: growth inhibition for each item.
1. CN(C)c1ccc(C2CC(C)(O)Oc3cc4c(cc32)OCO4)cc1 (stereo not given)
2. COc1ccc(NC(=O)CC2SC(=Nc3ccccc3C)NC2=O)c([N+](=O)[O-])c1 (stereo not given)
3. Nc1nc2ccc(NCc3ccc(C(=O)NC(CCC(=O)O)C(=O)O)cc3)cc2c(=O)[nH]1 (stereo not given)

### Response
1: 1; 2: -2; 3: 25

Parameters: items (list). Returns: growth inhibition for each item.
1. CC(C)(C)CC(C)(C)c1cc(O)c(O)c(CN2CCCCC2)c1
2. COc1ccc2[nH]cc([C@@H]3C4CCC(C4)[C@H]3NCc3cccc(CN[C@H]4C5CCC(C5)[C@@H]4c4c[nH]c5ccc(OC)cc45)c3)c2c1

### Response
-22
27

* * *

experiment: NCI Yeast Anticancer Drug Screen. Data for the rad50EPP+ strain (AID 151);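 note: 0% = growth of vehicle-treated control cultures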; conditions: S. cerevisiae rad50 mutant strain, at 11.0 µM, stronger effect = higher value
About 79,000 compounds went through this panel and 15% of them were active in at least one assay; those are over-represented in the sample as a whole.
Could you label it Y if measured growth inhibition is 20% or higher, and N otherwise?

Molecule: O=C1Nc2ccccc2/C1=C/c1ccccc1
Class name: N

### Prompt For this molecule, is measured growth inhibition 20% or higher? `O=C(O)c1cc2ccccc2c2c1C(=O)c1ccccc1-2`
### Response N

### Prompt For this molecule, is measured growth inhibition 20% or higher? `CC(C)(C)c1ccc(NS(=O)(=O)c2ccc(N)cc2)cc1`
### Response N

### Prompt For this molecule, is measured growth inhibition 20% or higher? CCCOC(=O)C(F)C(Br)C(=O)OCCC (stereo unspecified)
### Response Y

### Prompt For this molecule, is measured growth inhibition 20% or higher? `CCCCCCOC(=O)NCCOC(=O)Nc1ccccc1`
### Response N

### Prompt For this molecule, is measured growth inhibition 20% or higher? `CCOC(=O)c1[nH]n(-c2ccccc2)c(=O)c1C=NC(=S)C(N)=S`
### Response N

### Prompt For this molecule, is measured growth inhibition 20% or higher? `CCc1c[n+]([O-])c(C)cc1[N+](=O)[O-]`
### Response Y

### Prompt For this molecule, is measured growth inhibition 20% or higher? `CC(=O)ON=C1C=CC(=C(C#N)c2ccc(Cl)cc2)C=C1`
### Response Y

### Prompt For this molecule, is measured growth inhibition 20% or higher? `CCOC(=O)C(C(=O)OCC)=P(c1ccccc1)(c1ccccc1)c1ccccc1`
### Response N

### Prompt For this molecule, is measured growth inhibition 20% or higher? O=C1OC(C2=CC(=O)c3ccccc3C2=O)C(Cl)=C1Cl (stereo unspecified)
### Response Y

### Prompt For this molecule, is measured growth inhibition 20% or higher? `c1ccc(Cc2cc(-c3ccccc3)n[nH]2)cc1`
### Response N

* * *

assay: NCI Yeast Anticancer Drug Screen. Data for the sgs1 mgt1 strain (AID 161);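 note: 0% = growth of cultures given vehicle only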; conditions: S. cerevisiae sgs1 mgt1 strain, at 5.0 µM (retest, dose inferred, filed as 0.5)
Compounds without any hit were thinned out: in the full panel of roughly 79,000, 15% have a hit. The source made the active and inactive calls. No stated cut-off is given here; in the data, active means growth inhibition above about 70%; inactive means the rest.
Entry note: the call must match one of active, inactive

Look over these answered cases.
Compound: COc1cc(/C=C2\NC(=O)N(/C=C3\C(=O)Oc4ccccc4C3=O)C2=O)ccc1O
Class name: inactive

Compound: CC(/C=C/c1ccccc1)=N\NC(N)=S
Class name: inactive

Compound: CC(C)(C)N=C(NO)c1ccccc1
Class name: inactive

Compound: OCC(CO)C(c1cccc2ccccc12)c1cccc2ccccc12
Class name: inactive

Compound: CC12C(=O)OC(=O)C(c3ccccc31)c1ccccc12
Class name: inactive

### Prompt How was CN(C)c1ccc(C2CC(C)(O)Oc3cc4c(cc32)OCO4)cc1 (stereo unspecified) classified in this test?
### Response inactive

### Prompt How was `N#CC(C#N)=NNc1ccc(S(=O)(=O)O)cc1` classified in this test?
### Response inactive

### Prompt How was `CCOC(=O)c1[nH]n(-c2ccccc2)c(=O)c1C=NC(=S)C(N)=S` classified in this test?
### Response inactive

### Prompt How was `COc1oc(C(=O)NC2CCCCC2)c(-c2ccc(Cl)cc2)c1S(=O)(=O)c1ccccc1` classified in this test?
### Response inactive

### Prompt How was `O=[N+]([O-])c1ccc(N/N=C/Cc2ccccc2)c([N+](=O)[O-])c1` classified in this test?
### Response inactive

* * *

Exercise: state measured growth inhibition for each of the compounds provided.
experiment: NCI Yeast Anticancer Drug Screen. Data for the sgs1 strain (AID 173);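 note: 0% = growth of vehicle-only control cultures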; details: S. cerevisiae sgs1 mutant, at 3.7 µM, stronger effect = higher value
About 79,000 compounds went through this panel and 15% of them were active in at least one assay; those are over-represented in the sample as a whole.
One number for each entry, in %.

Compound: O/N=C\c1c(O)ccc2ccccc12
Measure unit: %
Measured value: 30

Parameters: items (list). Returns: growth inhibition for each item.
1. CC1CC(C)(C)CC(OCCN2CCCCC2)(c2ccccc2)C1 (stereo unspecified)
2. O=C(CC(C(=O)O)N1CCOCC1)c1ccccc1 (stereo unspecified)
3. c1ccc2c(c1)sc1c3cnccc3ccc21
4. O=C1NC(SSC2=NNC3(C(=O)N2)c2ccccc2-c2ccccc23)=NNC12c1ccccc1-c1ccccc12

### Response
12
5
-10
-1

Parameters: items (list). Returns: growth inhibition for each item.
1. OC1(c2ccccc2)CCCc2ccc(Cl)cc21 (stereo unspecified)
2. Oc1ccc(SCc2ccc(NCc3ccccc3)cc2)cc1
3. CCOC(=O)C(Br)C(Br)c1ccccc1Cl (stereo unspecified)
4. N#CC1=C(N)N(/N=C/c2ccccc2)C(c2ccccc2)C1(C#N)C#N (stereo unspecified)

### Response
[0, -63, 34, 41]

Parameters: items (list). Returns: growth inhibition for each item.
1. C=C(C(=C)n1nnc(C(=O)OC)c1C(=O)OC)n1nnc(C(=O)OC)c1C(=O)OC
2. CCN(CC)CCNc1ccc([N+](=O)[O-])c2nc3ccccc3c(N)c12
3. Cc1ccc(CC2(OCCN(C)C)CCC(C(C)(C)C)CC2)cc1 (stereo unspecified)
4. C[CH2][Sn]([CH2]C)([O]C(=O)C(N)Cc1ccccc1)[O]C(=O)C(N)Cc1ccccc1 (stereo unspecified)

### Response
[-1, 2, 26, 7]
